# Tested on: DU-145 prostate
# PROTOCOL: NCI-60 one-dose screen, 48 h (100 = growth as untreated, 0 = no growth, -100 = all killed)
# EXPERIMENTAL_SETUP: 10 µM unless noted
Compounds without any hit were thinned out: in the full panel of roughly 83,000, 20% have a hit.
Measured growth accompanies every entry in the list below.
Numeric answer only, unit % assumed.

Some solved cases for reference:
>>> observed_measurement("CC1=C2[C@@H](CC1)[C@]1(C)O[C@@](C(C)C)(C[C@H]1OC(=O)[C@H](C)O)[C@H]2OC(=O)/C=C/c1ccccc1")
105
>>> observed_measurement("Clc1ccc2c(NC3CCC(N4CCOCC4)CC3)ccnc2c1 (stereo not given)")
90.9
>>> observed_measurement("CN(C)CC1CCC(CN(C)C)C1=O (stereo not given)")
115
>>> observed_measurement("CSc1nnc(-c2cc3c([nH]c4ccccc43)c(-c3cccc(O)c3)n2)n1-c1ccccc1")
33.9

Prompt: Given `COc1ccc(-c2cc(-c3cc(OC)c(OC)c(OC)c3)c(C#N)c(=O)n2CCCCC(=O)NO)cc1` , respond with its growth.
Completion: 64.1

Prompt: Given `CCOC(=O)c1cc(C(=O)c2cc(OC)c(OC)c(OC)c2)n2ncccc12` , respond with its growth.
Completion: 23.7

Prompt: Given `O=C(/C=C/c1cccc(Cl)c1)c1cccc(OCCCOc2cccc(C(=O)/C=C/c3cccc(Cl)c3)c2)c1` , respond with its growth.
Completion: 108
